# SUBJECT_OF_TEST: pT7_6His-AlfaTag-ZIF268 (human, UniProt P18146 335-423)
# PROCEDURE_TEXT: PADIT-seq
# EXPERIMENTAL_CONTEXT: dsDNA, one strand shown
# maps each entry to its binding signal

ORDERED_RESIDUES | binding signal, log2FC
CTCGAGGATATCAAGATCTGGCCTCGGCGCGTGGGTCGGAACCTCTAGCTAGCCGACTCACTATAGGGATAATCGCCCTGAGCAAAGACC | 1.38
CTCGAGGATATCAAGATCTGGCCTCGGCGCGTGGGTTGGAACCTCTAGCTAGCCGACTCACTATAGGGATAATCGCCCTGAGCAAAGACC | 2.53
CTCGAGGATATCAAGATCTGGCCTCGGCTCTATAAAAGGAACCTCTAGCTAGCCGACTCACTATAGGGATAATCGCCCTGAGCAAAGACC | 0.0429
CTCGAGGATATCAAGATCTGGCCTCGGCCGATGGGCGGGAACCTCTAGCTAGCCGACTCACTATAGGGATAATCGCCCTGAGCAAAGACC | 0.00701
CTCGAGGATATCAAGATCTGGCCTCGGCCGCCCACTAGGAACCTCTAGCTAGCCGACTCACTATAGGGATAATCGCCCTGAGCAAAGACC | 0.246
CTCGAGGATATCAAGATCTGGCCTCGGCGCGTGGTCGGGAACCTCTAGCTAGCCGACTCACTATAGGGATAATCGCCCTGAGCAAAGACC | 0.471
CTCGAGGATATCAAGATCTGGCCTCGGCGCGTGGTACGGAACCTCTAGCTAGCCGACTCACTATAGGGATAATCGCCCTGAGCAAAGACC | 0.427
CTCGAGGATATCAAGATCTGGCCTCGGCGCGAAAGCGGGAACCTCTAGCTAGCCGACTCACTATAGGGATAATCGCCCTGAGCAAAGACC | 0.0239

====

# SUBJECT_OF_TEST: pT7_6His-AlfaTag-HOXD13 (human, UniProt P35453 263-343)
# Sequence (P35453 263-343): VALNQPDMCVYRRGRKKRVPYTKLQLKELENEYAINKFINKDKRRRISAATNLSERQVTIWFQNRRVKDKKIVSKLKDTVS
# PROCEDURE_TEXT: PADIT-seq
# EXPERIMENTAL_CONTEXT: dsDNA, one strand shown
Note to self: use T only for binding signal readings below -0.1 log2FC; a reading exactly at -0.1 log2FC still gets F.

ORDERED_RESIDUES | SUBJECT_OF_TEST | CLASSIFICATION
CTCGAGGATATCAAGATCTGGCCTCGGCTAGCTAAAAGGAACCTCTAGCTAGCCGACTCACTATAGGGATAATCGCCCTGAGCAAAGACC | pT7_6His-AlfaTag-HOXD13 (human, UniProt P35453 263-343) | T
CTCGAGGATATCAAGATCTGGCCTCGGCACGTTAAAAGGAACCTCTAGCTAGCCGACTCACTATAGGGATAATCGCCCTGAGCAAAGACC | pT7_6His-AlfaTag-HOXD13 (human, UniProt P35453 263-343) | F
CTCGAGGATATCAAGATCTGGCCTCGGCTCAATAAAAGGAACCTCTAGCTAGCCGACTCACTATAGGGATAATCGCCCTGAGCAAAGACC | pT7_6His-AlfaTag-HOXD13 (human, UniProt P35453 263-343) | F
CTCGAGGATATCAAGATCTGGCCTCGGCGCGCGAGCGGGAACCTCTAGCTAGCCGACTCACTATAGGGATAATCGCCCTGAGCAAAGACC | pT7_6His-AlfaTag-HOXD13 (human, UniProt P35453 263-343) | T
CTCGAGGATATCAAGATCTGGCCTCGGCTTCTTAAAAGGAACCTCTAGCTAGCCGACTCACTATAGGGATAATCGCCCTGAGCAAAGACC | pT7_6His-AlfaTag-HOXD13 (human, UniProt P35453 263-343) | F
CTCGAGGATATCAAGATCTGGCCTCGGCGATTTAAAAGGAACCTCTAGCTAGCCGACTCACTATAGGGATAATCGCCCTGAGCAAAGACC | pT7_6His-AlfaTag-HOXD13 (human, UniProt P35453 263-343) | F
CTCGAGGATATCAAGATCTGGCCTCGGCGAGGTAAAAGGAACCTCTAGCTAGCCGACTCACTATAGGGATAATCGCCCTGAGCAAAGACC | pT7_6His-AlfaTag-HOXD13 (human, UniProt P35453 263-343) | T
CTCGAGGATATCAAGATCTGGCCTCGGCATTTTAGACGGAACCTCTAGCTAGCCGACTCACTATAGGGATAATCGCCCTGAGCAAAGACC | pT7_6His-AlfaTag-HOXD13 (human, UniProt P35453 263-343) | T
CTCGAGGATATCAAGATCTGGCCTCGGCCTACTAAAAGGAACCTCTAGCTAGCCGACTCACTATAGGGATAATCGCCCTGAGCAAAGACC | pT7_6His-AlfaTag-HOXD13 (human, UniProt P35453 263-343) | F
CTCGAGGATATCAAGATCTGGCCTCGGCCATCTAAAAGGAACCTCTAGCTAGCCGACTCACTATAGGGATAATCGCCCTGAGCAAAGACC | pT7_6His-AlfaTag-HOXD13 (human, UniProt P35453 263-343) | F
CTCGAGGATATCAAGATCTGGCCTCGGCCATCCACGCGGAACCTCTAGCTAGCCGACTCACTATAGGGATAATCGCCCTGAGCAAAGACC | pT7_6His-AlfaTag-HOXD13 (human, UniProt P35453 263-343) | T
CTCGAGGATATCAAGATCTGGCCTCGGCGCGTGGATAGGAACCTCTAGCTAGCCGACTCACTATAGGGATAATCGCCCTGAGCAAAGACC | pT7_6His-AlfaTag-HOXD13 (human, UniProt P35453 263-343) | T
CTCGAGGATATCAAGATCTGGCCTCGGCTATGTAAAAGGAACCTCTAGCTAGCCGACTCACTATAGGGATAATCGCCCTGAGCAAAGACC | pT7_6His-AlfaTag-HOXD13 (human, UniProt P35453 263-343) | F
CTCGAGGATATCAAGATCTGGCCTCGGCGTTTTACGTGGAACCTCTAGCTAGCCGACTCACTATAGGGATAATCGCCCTGAGCAAAGACC | pT7_6His-AlfaTag-HOXD13 (human, UniProt P35453 263-343) | F
